Assign IC50 to each entry below.
system.name: CDK2/Cyclin E complex (Homo sapiens)
protocol.notes: CDK2/Cyclin E fluorescence-based microfluidic mobility shift assay (CDK2 Biochemical Caliper Assay)
protocol.conditions: read-out: Biochemical CDK2/CyclinE Caliper IC50

compound	IC50
Cc1cc(CC(=O)Nc2cc([C@@H]3C[C@@H](OC(=O)NC4(C)CC4)CO3)[nH]n2)on1 (single isomer, unassigned) [Example 109]	1000 to 100000 nM
c1cncc(O[C@@H]2CC[C@H](c3cc(Nc4nccn5nccc45)n[nH]3)C2)c1 (single isomer, unassigned) [Example 504]	1000 to 100000 nM

Attention now turns to another entry.
**Query** # query: IC50 of entry CC(C)NC(=O)O[C@H]1CC[C@@H](c2cc(Nc3ncnc4ncsc34)n[nH]2)C1 [Example 426]
**Result** ≤ 100 nM

---

Assign IC50 to each entry below.
system.name: CDK2/Cyclin E complex (Homo sapiens)
protocol.notes: CDK2/Cyclin E fluorescence-based microfluidic mobility shift assay (CDK2 Biochemical Caliper Assay)
protocol.conditions: read-out: Biochemical CDK2/CyclinE Caliper IC50

Example cases with answers are listed next.
compound	measured.result
COCc1cc(C(=O)Nc2cc([C@H]3C[C@H](OC)[C@@H](OC(=O)NC(C)C)C3)[nH]n2)n(C)n1 (single isomer, unassigned)	1 to 100 µM
COCc1cc(C(=O)Nc2cc([C@H]3C[C@@H](COc4nncn4C(C)C)C3)[nH]n2)n(C)n1	≤ 0.1 µM
Cc1cn2nc(Nc3cc(C4CCCC4)[nH]n3)cc(C)c2n1	1 to 100 µM
Cc1cncc(O[C@@H]2CC[C@H](c3cc(NC(=O)Cc4cc(C)no4)n[nH]3)C2)c1 (single isomer, unassigned)	0.25 to 1 µM
CC(C)NC(=O)O[C@@H]1CO[C@H](c2cc(NC(=O)c3cc(CN4CCCC4)nn3C)n[nH]2)C1	0.1 to 0.25 µM

Provide IC50 values for the following items, in order.
1. Cc1nc(Nc2cc(C3CCCC3)[nH]n2)c(C#N)c2c1CCC2
2. Cc1cc(CC(=O)Nc2ncc([C@H]3CC[C@@H](OC(=O)NC(C)C)C3)s2)on1 (single isomer, unassigned)
3. COCc1cc(C(=O)Nc2cc([C@@H]3CC[C@H](Oc4nnccc4C(F)(F)F)C3)[nH]n2)n(C)n1 (single isomer, unassigned)
4. CC(C)NC(=O)O[C@@H]1CC[C@H](c2cc(NC(=O)c3cc(CN4CCC(F)(F)C4)nn3C)n[nH]2)C1
5. Cc1cc(CC(=O)Nc2cc([C@@H]3CC[C@H](Oc4cnccc4C)C3)[nH]n2)on1 (single isomer, unassigned)
6. CC(=O)Nc1cc([C@@H]2CC[C@H](Oc3nnccc3C(C)C)C2)[nH]n1 (single isomer, unassigned)
7. Clc1cccc2nc(Nc3cc(C4CCCC4)[nH]n3)cnc12

**Result**
["1 to 100 µM", "≤ 0.1 µM", "≤ 0.1 µM", "≤ 0.1 µM", "0.25 to 1 µM", "≤ 0.1 µM", "1 to 100 µM"]

Provide IC50 values for the following items, in order.
1. Cc1cc(CC(=O)Nc2cc([C@@H]3CC[C@@H](CC(=O)O)C3)[nH]n2)on1 (single isomer, unassigned)
2. CC(=O)Nc1nc2ccnc(Nc3cc([C@H]4CC[C@@H](OC(=O)NC(C)C)C4)[nH]n3)c2s1 (single isomer, unassigned)
3. COCc1cc(C(=O)Nc2cc([C@H]3CC[C@](C)(CC(=O)NC(C)C)C3)[nH]n2)n(C)n1 (single isomer, unassigned)
4. COCc1cc2c(Nc3cc([C@H]4C[C@@H](OC(=O)NC(C)C)CO4)[nH]n3)nccn2n1
5. COCc1nc2ccnc(Nc3cc([C@H]4CC[C@@H](OC(=O)NC(C)C)C4)[nH]n3)c2s1 (single isomer, unassigned)

**Result**
1 to 100 µM
≤ 0.1 µM
1 to 100 µM
≤ 0.1 µM
≤ 0.1 µM

Provide IC50 values for the following items, in order.
1. Cc1cncc(O[C@H]2CC[C@@H](c3cc(NC(=O)Cc4cc(C)no4)n[nH]3)C2)c1 (single isomer, unassigned)
2. Cc1cc(CC(=O)Nc2cc([C@H]3CC[C@@H](Oc4cnccc4C)C3)[nH]n2)on1 (single isomer, unassigned)
3. COCc1cc2c(Nc3cc([C@@H]4C[C@H](OC(=O)NC5(C(F)(F)F)CC5)CO4)[nH]n3)nccn2n1
4. CC1(NC(=O)O[C@H]2CO[C@@H](c3cc(Nc4ncnc5ncccc45)n[nH]3)C2)CC1
5. Cc1cc(CC(=O)Nc2cc([C@H]3CC[C@@H](OC(=O)CC(C)C)C3)[nH]n2)on1 (single isomer, unassigned)
6. COCc1cc2c(Nc3cc([C@H]4C[C@@H](COc5nncn5C(C)(C)C)C4)[nH]n3)nccn2n1

**Result**
["1 to 100 µM", "0.1 to 0.25 µM", "≤ 0.1 µM", "≤ 0.1 µM", "≤ 0.1 µM", "≤ 0.1 µM"]
